- SYSTEM UNDER TEST: Beta-adrenergic receptor kinase 1 (Homo sapiens)
- TEST DESCRIPTION: GRK2 binders displacing RNA aptamer, biochemical, validation, human GRK2, bead flow cytometry (AID 488806)
- CONDITIONS USED: bead-bound GRK2, FAM-aptamer displacement, at 10 µM, stronger effect = higher value
Examples of molecules with documented aptamer binding inhibition follow.
Write the value in % as a bare number.

SMILES STRING | aptamer binding inhibition [%]
O=C(CCCN1CC=C(n2c(=O)[nH]c3ccccc32)CC1)c1ccc(F)cc1 | -3
Cc1c(CCOC(=O)CC23CC4CC(CC(C)(C4)C2)C3)sc[n+]1Cc1ccc([N+](=O)[O-])cc1 | -9
C[C@]12CCC(=O)C=C1CC[C@@H]1[C@@H]2C(=O)C[C@@]2(C)[C@H]1CC[C@]2(O)C(=O)CO | 4
N=c1ccn(CC(=O)NC(N)=O)c2ccccc12 | 4

// next item, aptamer binding inhibition requested
Dear colleague, I am looking for the recorded aptamer binding inhibition of the following molecule: COC(=O)c1cc(=O)c2ccc(OC)cc2o1 1
